# measured-target: T1, human LILRB2 expressed on cells (human, UniProt Q8N423 22-597)
# T1 construct: In 293T cells it was expressed from pCMV3-LILRB2-GFP; also called CHO-LILRB2; Jurkat-LILRB2
# T1 sequence (Q8N423 other isoform, or with tags, fused parts or gaps limits assumed): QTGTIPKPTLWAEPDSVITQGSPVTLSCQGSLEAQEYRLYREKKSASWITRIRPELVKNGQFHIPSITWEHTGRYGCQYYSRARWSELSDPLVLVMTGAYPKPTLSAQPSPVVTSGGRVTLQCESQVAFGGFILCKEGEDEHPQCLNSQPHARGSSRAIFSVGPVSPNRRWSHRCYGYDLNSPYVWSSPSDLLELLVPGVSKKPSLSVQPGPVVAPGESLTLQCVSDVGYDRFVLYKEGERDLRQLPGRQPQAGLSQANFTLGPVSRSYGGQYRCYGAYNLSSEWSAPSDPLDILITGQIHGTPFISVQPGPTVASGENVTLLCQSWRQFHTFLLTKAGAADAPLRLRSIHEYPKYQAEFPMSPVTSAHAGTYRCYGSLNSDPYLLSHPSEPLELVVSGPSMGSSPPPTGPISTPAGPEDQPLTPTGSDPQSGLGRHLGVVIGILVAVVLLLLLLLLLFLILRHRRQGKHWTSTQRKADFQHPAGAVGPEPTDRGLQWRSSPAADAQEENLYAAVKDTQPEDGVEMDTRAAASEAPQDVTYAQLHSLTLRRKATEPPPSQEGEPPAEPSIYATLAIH
# procedure-summary: flow cytometry on CHO-LILRB2 cells, non-linear fit of the curves of FIG. 26B
Provide the recorded MaxMFI for the entries that follow.
Numbers only.

binder	measurement
D2M002-103HV1 (antibody, V domains shown, Humanized and optimized variant of the D2M002-002 lineage) VH: QVQLVQSGAEVKKPGASVKVSCKASGYTFTRYVMHWVRQAPGQRLEWIGYINPNNEETKYSQKFKGRVTLTRDTSASTAYMELSSLRSEDTAVYYCARADLEILPYYDHARYAMDYWGQGTLVTVSS VL: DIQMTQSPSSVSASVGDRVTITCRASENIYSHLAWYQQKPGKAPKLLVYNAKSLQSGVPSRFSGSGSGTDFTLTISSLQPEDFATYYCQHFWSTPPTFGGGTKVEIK	30000
D2M002-126 (antibody, V domains shown, Humanized and optimized variant of D2M002-026) VH: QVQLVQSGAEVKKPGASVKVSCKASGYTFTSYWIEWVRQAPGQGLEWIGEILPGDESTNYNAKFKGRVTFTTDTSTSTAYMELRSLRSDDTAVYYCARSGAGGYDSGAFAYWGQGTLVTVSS VL: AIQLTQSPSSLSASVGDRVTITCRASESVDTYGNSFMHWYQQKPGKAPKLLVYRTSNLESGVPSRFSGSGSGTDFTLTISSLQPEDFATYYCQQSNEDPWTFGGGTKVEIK	33600
D2M002-026 (antibody, V domains shown, Hit; also called clone #26) VH: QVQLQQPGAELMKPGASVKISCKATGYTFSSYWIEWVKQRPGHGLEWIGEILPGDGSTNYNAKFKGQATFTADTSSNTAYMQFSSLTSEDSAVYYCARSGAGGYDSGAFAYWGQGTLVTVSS VL: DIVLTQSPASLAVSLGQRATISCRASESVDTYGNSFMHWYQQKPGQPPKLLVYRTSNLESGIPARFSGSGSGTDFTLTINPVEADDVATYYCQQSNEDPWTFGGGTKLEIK	31800

Now, please, on to the next binder.
**Query** I have this binder here, D2M002-002 (antibody, V domains shown, Hit from immunised mice; also called clone #2; anti-LILRB1/2 clone #2) VH: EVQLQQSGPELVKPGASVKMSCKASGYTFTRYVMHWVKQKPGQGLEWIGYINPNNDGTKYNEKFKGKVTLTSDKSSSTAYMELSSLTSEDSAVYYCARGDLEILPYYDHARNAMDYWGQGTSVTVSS VL: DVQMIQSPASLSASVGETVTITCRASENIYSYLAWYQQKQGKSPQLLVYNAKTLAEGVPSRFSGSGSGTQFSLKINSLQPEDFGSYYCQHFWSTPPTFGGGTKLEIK , and I need its recorded MaxMFI.
**Result** 32600
